Test system: E. coli MG1655
Assay: Microscopic observation of cell shape
Format: cell-based
Conditions: Example 2; methods as in Example 1
measuredQuantity: Shape

compound	Shape
N=C(N)SCc1cc(Cl)ccc1Cl	Sphere
N=C(N)SCc1ccc(C(F)(F)F)cc1	Sphere
N=C(N)SCc1ccc(Cl)cc1	Sphere
N=C(N)SCc1cc(Cl)cc(Cl)c1	Sphere
N=C(N)SCc1ccccc1Cl	Sphere

Consider the compound CC1(C)S[C@@H]2[C@H](/N=C/N3CCCCCC3)C(=O)N2[C@H]1C(=O)O [mecillinam, reference compound] and give its measured Shape.
Sphere

Look up Shape: `N=C(N)SCc1ccc(F)cc1`
Sphere

Which measured Shape value corresponds to `N=C(N)SCc1ccc(F)c(F)c1` ?
Sphere

// lookup Shape for `N=C(N)SCc1ccccc1C(F)(F)F`
Sphere

Request the reported Shape associated with NC(=S)Nc1ccccc1 [Compound 10, N-phenylthiourea, reference compound]
Rod

Item under review: N#CSCc1ccccc1 [Compound 7, S-benzylithiocyanate, reference compound] . Reported Shape?
Rod

Which Shape is reported for this compound? O=C=NCc1ccccc1 [Compound 9, benzylisocyanate, reference compound]
Rod

Consider the compound shown here: `N=C(N)SCc1ccc(Cl)c(Cl)c1` What is its recorded Shape?
Sphere

Data request, read-out Shape, for `N=C(N)SCc1ccc([N+](=O)[O-])cc1`
Sphere

Using the record for `N=C(N)SCc1ccccc1F` , report its Shape.
Sphere

Reference for the values: patent US7855228B2
